Test: Metabolic stability in human liver microsomes assessed as stability measured after 30 mins by LC-MS/MS analysis
Format: ADME, Microsome
Conditions: read-out: Drug metabolism
quantityName: remaining at 0.5 h

O=C(Nc1cn2cc(-c3cccc(F)c3OCCF)ccc2n1)[C@@H]1C[C@@H]1F; < 30%
O=C(Nc1cn2cc(-c3ccccc3CCF)ccc2n1)[C@@H]1C[C@@H]1F; < 30%
Cc1cc(F)ncc1-c1ccc2nc(NC(=O)[C@@H]3C[C@@H]3F)sc2c1; < 30%

###

Test: AUC (0 to last) in C57BL6 mouse brain at 1 mg/kg, iv single administration measured upto 24 hrs by LC-MS/MS analysis
Assay type: ADME, organism-based
Parameters: time < 24 hrs, dose 1 mg/kg, route iv
AUC(0-t) at 24 h listing for selected compounds.
quantityName: AUC(0-t) at 24 h (ng·h/mL)

O=C(Nc1cn2cc(-c3cccc(F)c3OCCF)ccc2n1)[C@@H]1C[C@@H]1F; 536
O=C(Nc1cn2cc(-c3ccccc3CCF)ccc2n1)[C@@H]1C[C@@H]1F; 597

###

Assay: In vivo stability in iv dosed Hsd:ICR (CD-1) mouse brain assessed as stability measured after 90 mins by radio-HPLC analysis
Assay type: ADME, organism-based
Settings: read-out: Stability
quantityName: remaining at […] (%)

O=C(Nc1cn2cc(-c3ccccc3CC[18F])ccc2n1)[C@@H]1C[C@@H]1F; 8.5
O=C(Nc1cn2cc(-c3cccc(F)c3OCC[18F])ccc2n1)[C@@H]1C[C@@H]1F; 33

###

Assay: Plasma protein binding in CD-1 ISG mouse plasma measured after 4 hrs by equilibrium dialysis based LC-MS/MS analysis
Format: ADME, cell-free
Settings: read-out: PPB (converted)
quantityName: fraction unbound at 4 h

O=C(Nc1cn2cc(-c3ccccc3CCF)ccc2n1)[C@@H]1C[C@@H]1F; 0.0734
O=C(Nc1cn2cc(-c3cccc(F)c3OCCF)ccc2n1)[C@@H]1C[C@@H]1F; 0.0692
Cc1cc(F)ncc1-c1ccc2nc(NC(=O)[C@@H]3C[C@@H]3F)sc2c1; 0.0192

###

Assay: AUC in C57BL6 mouse brain at 0.5 mg/kg, iv single administration measured upto 24 hrs by LC-MS/MS analysis
Format: ADME, organism-based
Parameters: dose 0.5 mg/kg, time < 24 hrs, route iv
quantityName: AUC at 24 h (ng·h/mL)

Cc1cc(F)ncc1-c1ccc2nc(NC(=O)[C@@H]3C[C@@H]3F)sc2c1; 1670

###

Assay: AUC (0 to last) in C57BL6 mouse brain at 0.5 mg/kg, iv single administration measured upto 24 hrs by LC-MS/MS analysis
Format: ADME, organism-based
Parameters: time < 24 hrs, dose 0.5 mg/kg, route iv
quantityName: AUC(0-t) at 24 h (ng·h/mL)

Cc1cc(F)ncc1-c1ccc2nc(NC(=O)[C@@H]3C[C@@H]3F)sc2c1; 3380

###

Test: Initial plasma concentration in C57BL6 mouse plasma at 0.5 mg/kg, iv single administration measured upto 24 hrs by LC-MS/MS analysis
Assay type: ADME, organism-based
quantityName: C0 at 24 h (ng/mL)

Cc1cc(F)ncc1-c1ccc2nc(NC(=O)[C@@H]3C[C@@H]3F)sc2c1; 1580

###

Assay: Half life in C57BL6 mouse brain at 1 mg/kg, iv single administration measured upto 24 hrs by LC-MS/MS analysis
Assay type: ADME, organism-based
quantityName: half-life (min)

O=C(Nc1cn2cc(-c3ccccc3CCF)ccc2n1)[C@@H]1C[C@@H]1F; 12
O=C(Nc1cn2cc(-c3cccc(F)c3OCCF)ccc2n1)[C@@H]1C[C@@H]1F; 30
